So I've got a bunch of molecules here, and I need their growth inhibition values.
experiment: NCI Yeast Anticancer Drug Screen. Data for the mlh1 rad18 strain (AID 175); conditions: S. cerevisiae mlh1 rad18 strain growth inhibition; at 50.0 µM; active compounds read high
About 79,000 compounds went through this panel and 15% of them were active in at least one assay; those are over-represented in the sample as a whole.
Numbers only, in %.

Solved cases below.
molecule | experimental_value
COc1ccc(C=C2C(=O)OC(C)(C)OC2=O)cc1OC | -4.85
C=CCNC(=O)NCCCC(NC(C)=O)C(=O)NCc1ccccc1 (stereo unspecified) | -20.6

For each of the items listed, what is its growth inhibition?
1. Cc1ccc(O)c(C=O)c1
2. CCc1nnc(CC)n1NC(=O)Nc1ccc(C)cc1

Response line:
-6.8
1.25

Quick batch: growth inhibition for everything below.
1. [N-]=[N+]=CC(=O)C(CN)(Cc1ccccc1)c1ccc(Cl)cc1 (stereo unspecified)
2. CC(=O)OC1CCC2(C)C3CCC4(C)C(C(C)CCCC(C)C)CCC4C3CC(=O)C23CC13 (stereo unspecified)

Response line:
[9.05, 17.9]

* * *

assay: NCI Yeast Anticancer Drug Screen. Data for the rad50 strain (AID 155);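 note: 0% = growth of vehicle-only cultures of the same strain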; conditions: S. cerevisiae rad50 strain growth inhibition; at 50.0 µM; active compounds read high
This is part of a sample that, as a whole, favours compounds with a hit. Of some 79,000 tested, about 15% had one in any assay.
measure_name: growth inhibition (%)
Give bare numbers, in %.

compound | growth inhibition (%)
Cn1c2ccccc2c2c3c(ccc21)C(=O)c1ccccc1C3=O | 6.85
CC1(C)O[C@@H]2C[C@H]3[C@@H]4C[C@H](F)C5=CC(=O)C=C[C@]5(C)[C@@]4(F)[C@@H](O)C[C@]3(C)[C@]2(C(=O)CO)O1 | -1.8

Each of the following entries comes with a recorded value; kindly state growth inhibition for each.
1. C[N+](C)(C)C1(Cc2ccccc2)c2ccccc2-c2ccc(Cl)cc21 (configuration not stated)
2. O=C(C[n+]1ccncc1)c1cccc([N+](=O)[O-])c1
3. CCCCCCCSC#N

Response line:
[29.1, 0.5, -7.6]

Give one value of growth inhibition per listed compound.
1. COC(=O)/C=C(C)/C=C/C1OC(C)OCC1O (configuration not stated)
2. C=CC1CC1(Cl)Cl (configuration not stated)
3. CC1(C)c2ccccc2C(=O)c2ccccc21
4. CSC(=Nc1nnc(-c2ccc([N+](=O)[O-])cc2)s1)SC
5. CC(=O)O/C(=C\C(=O)[C@H]1CC[C@H]2[C@@H]3CC[C@@H]4C[C@H](OC(C)=O)CC[C@]4(C)[C@H]3C(=O)C[C@]12C)C(F)(F)F
6. O=C(O)CCCCCCCCC(=O)c1cc(O)ccc1O
7. Cn1ccnc1CCc1ccc(F)cc1F

Response line:
[7.55, -10.9, 8.1, 8.35, -16.1, -5.3, -37.2]

* * *

experiment: NCI Yeast Anticancer Drug Screen. Data for the bub3 strain (AID 167); details: S. cerevisiae bub3 mutant strain, at 50.0 µM, active compounds read high
The panel holds about 79,000 compounds, 15% with a hit somewhere; the sample as a whole holds those more often. The source made the active and inactive calls. Cut-off read from the data, not from the text of the source: active = growth inhibition above about 70%; inactive = the rest.
Exercise: for every item that follows, state its recorded growth inhibition.

Illustrative cases are given below, each with its answer.
molecule | experimental_value
Clc1cccc2nc(-c3ccccn3)n(CCc3ccncc3)c12 | 74.7% (active)
O=C1CCC2(O1)c1ccc(O)cc1Oc1cc(O)ccc12 | 7.6% (inactive)
CN(C)Cc1cccc(-c2ccccc2)c1O | 5.3% (inactive)
CC(=O)NC(CCc1ccccc1)C(=O)O (configuration not stated) | 40.8% (inactive)
Cc1ccc2nccc(C)c2c1 | -27.6% (inactive)

Kindly give each listed record's growth inhibition.
1. CCC(C)C/C(C)=N\NC(N)=O (configuration not stated)
2. COc1ccc(CNc2ncccn2)cc1
3. C=CCC(C)C(=O)NNC(=O)C(C)CC=C (configuration not stated)
4. Cc1ccc(C(=O)Nc2ccc(CP(=O)(O)O)cc2CP(=O)(O)O)cc1NC(=O)Nc1cc(C(=O)Nc2ccc(CP(=O)(O)O)cc2CP(=O)(O)O)ccc1C

Response line:
["-4.75% (inactive)", "-12% (inactive)", "-12.2% (inactive)", "0.4% (inactive)"]
